# RUN_DESCRIPTION: Hepatocytes stability assay (human hepatocytes)
# Assay type: in vitro ADME
# EXPERIMENTAL_PARAMETERS: both sexes, human, cryopreserved hepatocytes, cryopreserved human hepatocytes (pool of 50 mixed gender); 1 μM test compound; 1×10^6 cell/mL; 37 degrees C; read-out: CLint (μL/min/million cells)
ENDPOINT_LABEL: hepatocyte CLint at 1 μM (µL/min/1e6 cells)

Answered examples (3):
{"MOLECULE": "CC(C)S(=O)(=O)N[C@H]1CCCN2C(=O)COc3ncccc3C3CCC(CC3)OC[C@@H]12 (stereo in doubt)", "UNIT_TAG": "µL/min/1e6 cells", "hepatocyte CLint at 1 μM": 15}
{"MOLECULE": "COC(=O)N1CCC[C@H](NS(C)(=O)=O)[C@@H]1CO[C@H]1CC[C@@H](c2ccccc2)CC1 [Reference Compound A, reference compound]", "UNIT_TAG": "µL/min/1e6 cells", "hepatocyte CLint at 1 μM": 76}
{"MOLECULE": "O=C1COc2ccccc2C2CCC(CC2)OC[C@H]2[C@@H](NS(=O)(=O)CCO)CCCN12 (stereo in doubt)", "UNIT_TAG": "µL/min/1e6 cells", "hepatocyte CLint at 1 μM": 6.6}

I. O=S(=O)(N[C@H]1CCCN2CCOc3ncccc3[C@H]3CC[C@H](CC3)OCC12)C1CC1 (stereo in doubt)
II. CC(C)S(=O)(=O)N[C@H]1CCCN2C(=O)COc3ncc(Cl)cc3[C@H]3CC[C@H](CC3)OCC12 (stereo in doubt)
Problem: Look at I and II . Which one has the lower recorded hepatocyte CLint at 1 μM number? In your reply, give the label of the chosen option.
Solution: II
(II: 16 µL/min/1e6 cells, I: 44 µL/min/1e6 cells)
